Target: Agrobacterium tumefaciens AtThuE sensor FLIPsuc4μ variant D115A (FLIPsuc1m, FLIPsucD115A) (Agrobacterium fabrum, UniProt A9CF11, D135A/N212D)
Assay: in vitro FRET titration of affinity mutant FLIPsuc1m
Assay type: binding
Conditions: Kd, 20 mM MOPS pH 7, FRET titration
pKd values by entry
# pKd: negative log10 of molar concentration; output just the value

Answered cases to consult:
Compound: OC[C@H]1O[C@H](O[C@H]2[C@H](O)[C@@H](O)C(O)O[C@@H]2CO)[C@H](O)[C@@H](O)[C@@H]1O (stereo partly drawn) [maltose]
pKd: 4.29
--
Compound: OC[C@H]1OC(O)[C@H](O)[C@@H](O)[C@@H]1O (stereo partly drawn) [glucose]
pKd: 1.79

Would you kindly look at the next entry?
Enquiry: Tell me the measured pKd of OC[C@H]1O[C@@](CO)(O[C@H]2O[C@H](CO)[C@@H](O)[C@H](O)[C@H]2O)[C@@H](O)[C@@H]1O [sucrose] , please.
Return: 2.87
